All figures here come from patent US20210024499A1.

target: UniProtKB P22736
Sequence (P22736 360-595 limits assumed): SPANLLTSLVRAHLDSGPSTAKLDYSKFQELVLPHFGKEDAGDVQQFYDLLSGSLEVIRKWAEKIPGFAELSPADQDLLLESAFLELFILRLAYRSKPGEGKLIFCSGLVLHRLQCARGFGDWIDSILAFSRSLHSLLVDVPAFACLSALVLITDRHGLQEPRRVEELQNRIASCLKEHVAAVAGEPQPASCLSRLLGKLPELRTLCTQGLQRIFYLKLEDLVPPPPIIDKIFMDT
readout.label: Kd (nM)
Answer in nM, number only, no unit symbol.

Lab note: compound FC(F)(F)c1ccc([C+](c2c[nH]c3ccccc23)c2c[nH]c3ccccc23)cc1 [Compound 1, methanesulfonate] tested on UniProtKB P22736; recorded Kd was 100

====

tested on: HCT116 cancer cells; assay: Cell viability (MTT) assay, HCT116; format: cell-based; details: Homo sapiens, HCT-116; inhibiting the growth of HCT116 cancer cells, cell viability assay (Table 5)
pIC50: −log10 of the molar value.
Measured pIC50 by item

Clc1ccc([C+](c2c[nH]c3ccccc23)c2c[nH]c3ccccc23)cc1 [Compound 5, methanesulfonate] : > 6.30
FC(F)(F)Oc1ccc([C+](c2c[nH]c3ccccc23)c2c[nH]c3ccccc23)cc1.[Cl-] [Compound 39] : 5.30 to 6.30
Cn1cc([C+](c2ccc(C(F)(F)F)cc2)c2c[nH]c3c(F)cccc23)c2ccccc21.[Cl-] [Compound 89] : > 6.30
FC(F)(F)c1ccc([C+](c2c[nH]c3ccccc23)c2c[nH]c3ccccc23)cc1 [Compound 1, methanesulfonate] : > 6.30
COc1ccc([C+](c2c[nH]c3ccccc23)c2c[nH]c3ccccc23)cc1 [Compound 7, methanesulfonate] : 5.30 to 6.30
O=C(O)c1ccc([C+](c2c[nH]c3ccccc23)c2c[nH]c3ccccc23)cc1 [Compound 82, methanesulfonate] : 5.30 to 6.30

Please turn your attention to the following entry.
The compound listed as Cn1cc([C+](c2ccc(C(F)(F)F)cc2)c2c[nH]c3ccccc23)c2ccccc21 [Compound 28, methanesulfonate] shows pIC50 equal to > 6.30
